Numbers sourced from paper PMC6384738.

System: K. pneumoniae ATCC 13833
Assay: microbe, parasite or virus in culture
Details: ATCC 13833, 18 h
Protocol: All compounds synthesised in this study were assessed for their minimum inhibitory concentrations (MIC, mg/L) by broth microdilution assay against five antibiotic-sensitive and resistant ATCC reference strains covering the Gram-negative ESKAPE pathogens (Escherichia coli, Klebsiella pneumoniae, A. baumannii, and P. aeruginosa) (Table 1, Table 2 and Table 3). Staphylococcus aureus was also included as a representative Gram-positive bacterial strain. […]
Where a SMILES comes first, the peptide text is derived from it. Bridges are numbered along the chain shown (N, C = ends). [ ]: non-standard residue; d: D form. The star is where a group is joined. Isonicotinoyl(2-Ph) = O=C(c1ccnc(-c2ccccc2)c1)*; Octanoyl = CCCCCCCC(=O)*; Dab = NCC[C@H](N)C(=O)O
# maps each entry to its MIC K. pneumoniae ATCC 13833

Below are worked cases with known answers.
CCCCCCCC(=O)N[C@H](C(=O)N[C@@H](CCN)C(=O)N[C@H]1CCCCNC(=O)[C@H]([C@@H](C)O)NC(=O)[C@H](CCN)NC(=O)[C@H](CCN)NC(=O)[C@H](CC(C)C)NC(=O)[C@@H](Cc2ccccc2)NC(=O)[C@H](CCN)NC1=O)[C@@H](C)O [Compound 18] (Octanoyl-T[Dab]K[Dab][dF]L[Dab][Dab]T; lactam 3-C)    >32 µg/mL
CCCCCCCC(=O)N[C@@H](CCN)C(=O)N[C@H](C(=O)N[C@H](CO)C(=O)N[C@H]1CCNC(=O)[C@H]([C@@H](C)O)NC(=O)[C@H](CCN)NC(=O)[C@H](CCN)NC(=O)[C@H](CC(C)C)NC(=O)[C@@H](Cc2ccccc2)NC(=O)[C@H](CCN)NC1=O)[C@@H](C)O [Compound 34] (Octanoyl-[Dab]T[dS][Dab][Dab][dF]L[Dab][Dab]T; lactam 4-C)    0.5 µg/mL

In the following, a different compound is considered.
**Q:** Entry under review: CC(C)C[C@@H]1NC(=O)[C@@H](Cc2ccccc2)NC(=O)[C@H](CCN)NC(=O)[C@@H](NC(=O)[C@H](CCN)NC(=O)[C@@H](NC(=O)c2ccnc(-c3ccccc3)c2)[C@@H](C)O)CCNC(=O)[C@H]([C@@H](C)O)NC(=O)[C@H](CCN)NC(=O)[C@H](CCN)NC1=O [Compound 10] ({Isonicotinoyl(2-Ph)}-T[Dab][Dab][Dab][dF]L[Dab][Dab]T; lactam 3-C) . Reported MIC K. pneumoniae ATCC 13833?
**A:** >32 µg/mL
